The values you see were collected from patent US6512097.

Target: T1, c-erbB-2 ECD with a Ser-Gly-His6 C-terminal fusion (UniProt P04626 23-652)
T1 construct: extracellular domain; Expressed from CHO cells, IMAC purified; coupled to a CM5 chip, coated on plates, or biotinylated with NHS-LC-biotin; also called c-erbB-2 extracellular domain; biotinylated c-erbB-2 ECD
Assay: SPR BIAcore
Procedure: All assays were performed in triplicate. Briefly, […] of radioiodinated sFv was added to 5×10^6 SK-OV cells in the presence of increasing concentrations of unlabeled sFv from the same preparation. After a 30 minute incubation at 20° C., the samples were washed with PBS at 4° C. and centrifuged at 500 g. The amount of labeled sFv bound to the cells was determined by counting the pellets in a gamma counter and the K_a, and K_d were calculated using the EBDA program (V 2.0, G. A. McPherson, 1983). […]
recorded_metric: pKd
Kindly note that pKd refers to -log10 of the concentration in mol/L and answer with the value alone.

Value lookup for pKd; key = C6-B47D3 (scFv, Combined B47 and D3 mutations on C6ML3-9) scFv: QVQLLQSGAELKKPGESLKISCKGSGYSFTSYWIAWVRQMPGKGLEYMGLIYPGDSDTKYSPSFQGQVTISVDKSVSTAYLQWSSLKPSDSAVYFCARHDVGYCTDRSCAKWPEWLDNWGQGTLVTVSSGGGGSGGGGSGGGGSQSVLTQPPSVSAAPGQKVTISCSGSSSNIGNNYVSWYQQLPGTAPKLLIYGHTNRPAGVPDRFSGSKSGTSASLAISGFRSEDEADYYCASWDYTLSGWVFGGGTKLTVLG
10.32
